System: CAKI-1 renal
Assay: NCI tumour cell line growth inhibition, 48 h
value_type: TGI

[[record]]
compound = "COc1cc2oc(=O)ccc2cc1CC=C(C)C"
obs_value = "> 100 µM"

[[record]]
compound = "COc1ccc(-c2nn(-c3cccc(NC(=O)c4ccc(N5CCOCC5)c(C(F)(F)F)c4)c3)cc2-c2ccncc2)cc1Cl"
obs_value = "> 50 µM"

[[record]]
compound = "Nn1c(N=Nc2c(O)[nH]c3c(Cl)cc(Cl)cc23)n[nH]c1=S"
obs_value = "> 100 µM"

[[record]]
compound = "CC1(C)OC(=O)C=C([O-])O1.CC1(C)OC(=O)C=C([O-])O1.CC[O-].CC[O-].[Ti+4]"
obs_value = "> 100 µM"

[[record]]
compound = "Cc1cc(-c2nc3cccc(F)c3s2)ccc1N"
obs_value = "> 100 µM"

[[record]]
compound = "O=S(=O)(NCCNc1nccc(-c2c(-c3ccc(F)cc3)nc3sccn23)n1)c1ccccc1"
obs_value = "> 100 µM"

[[record]]
compound = "CC1=NN(C(=O)CC(=O)Nc2cccc(Cl)c2)C(=O)C1N=Nc1ccc(C(=O)O)cc1 (stereo unspecified)"
obs_value = "> 100 µM"

[[record]]
compound = "Cc1ccccc1N=NC(C(=O)c1ccccc1)C(=O)c1ccccc1"
obs_value = "96.6 µM"

[[record]]
compound = "Nc1ccc([C@H]2C(=O)N[C@H]3CCC[C@H]32)cc1"
obs_value = "> 100 µM"

[[record]]
compound = "COc1ccc(C2=CC(c3ccc(OC)c(OC)c3)c3c(c4ccccc4oc3=O)O2)cc1OC (stereo unspecified)"
obs_value = "> 100 µM"

[[record]]
compound = "Cc1cc2c(cc1N)C(C)C1(CCC(=O)N2Cc2ccccc2)OCCO1 (stereo unspecified)"
obs_value = "> 100 µM"

[[record]]
compound = "O=C(Nc1ccc(I)cc1F)c1cc(Cl)ccc1O"
obs_value = "2.34 µM"

[[record]]
compound = "CCN(CC)CCO/N=C1/C=C2CCC3C(CC[C@@]4(C)C3CC[C@]4(C)O)[C@@]2(C)CC1 (stereo partly specified)"
obs_value = "20.1 µM"

[[record]]
compound = "CC(C)(C)C1CCC2c3c([nH]c4ccccc34)C3C(=O)N(c4ccc5c(c4)C(=O)c4ccccc4C5=O)C(=O)C3C2C1 (stereo unspecified)"
obs_value = "> 100 µM"

[[record]]
compound = "CC(CCCOC(c1ccccc1)(c1ccccc1)c1ccccc1)OC(=O)Nc1ccccc1 (stereo unspecified)"
obs_value = "26.8 µM"

[[record]]
compound = "NCCSCCc1ccccc1"
obs_value = "> 100 µM"


* * *

Tested on: SF-268 CNS
Assay: NCI tumour cell line growth inhibition, 48 h
The reader will find reported TGI values listed item by item below.
value_type: TGI

[[record]]
compound = "Cc1cccc2c(=O)c3cccc([C@@H](C)C(=O)O)c3oc12"
value_type = "TGI"
obs_value = "> 100 µM"

[[record]]
compound = "COc1ccc2c(c1)CCC(OS(=O)(=O)CC13CCC(CC1=O)C3(C)C)C2=O (configuration not stated)"
value_type = "TGI"
obs_value = "59.8 µM"

[[record]]
compound = "CC[C@@H]1/C=C/C=C/C[C@H](C)[C@@H](O)[C@](C)(O)C(=O)[C@H](C)[C@@H](O)[C@H](C)C(=O)[C@H](C)[C@@H](O)[C@H](C)/C=C/C(=O)O[C@H]2[C@@H](C)[C@@H](CC1)O[C@@]1(CC[C@@H](C)[C@@H](CC(C)O)O1)[C@@H]2C (some centres not stated)"
value_type = "TGI"
obs_value = "12.7 µM"

[[record]]
compound = "C/C(=N\\Nc1nc2ccccc2s1)c1cc(C)ncn1"
value_type = "TGI"
obs_value = "3.16 µM"

[[record]]
compound = "C/C(=N\\NC(=S)NCc1ccccc1)c1nc2ncccc2[nH]1"
value_type = "TGI"
obs_value = "65.6 µM"

[[record]]
compound = "CN(C)Cc1cc(C(C)(C)C)cc(C2CCCCC2)c1O"
value_type = "TGI"
obs_value = "32.5 µM"

[[record]]
compound = "Cc1ncc([N+](=O)[O-])n1CCNC(=O)Cn1c([N+](=O)[O-])cnc1C"
value_type = "TGI"
obs_value = "> 100 µM"

[[record]]
compound = "C[C@]12CC[C@H](O)CC1=CC[C@@H]1C2CC[C@]2(C)Nc3c(cnn3-c3ccc(F)cc3)CC12 (some centres not stated)"
value_type = "TGI"
obs_value = "> 100 µM"

[[record]]
compound = "CCCCCCC(/C=N/O)C(C)(O)CCC (configuration not stated)"
value_type = "TGI"
obs_value = "> 100 µM"

[[record]]
compound = "COc1ccc(N=[N+]([O-])c2ccc(OC)cc2)cc1"
value_type = "TGI"
obs_value = "> 100 µM"

[[record]]
compound = "CCCCNC(=S)/N=C/c1c(O)c2ccccc2[nH]c1=O"
value_type = "TGI"
obs_value = "> 10 µM"

[[record]]
compound = "CN(C)CCN1C(=O)c2cccc3cccc(c23)C1=O"
value_type = "TGI"
obs_value = "> 25 µM"

[[record]]
compound = "COC(=O)c1c(-c2ccccc2)c2sc3ccccc3n2c1N"
value_type = "TGI"
obs_value = "> 100 µM"

[[record]]
compound = "c1ccc(CNc2nc(Nc3ccccc3)nc3ccccc23)cc1"
value_type = "TGI"
obs_value = "9.3 µM"

[[record]]
compound = "O=C(Nc1ccc(I)cc1F)c1cc(Cl)ccc1O"
value_type = "TGI"
obs_value = "7.06 µM"

[[record]]
compound = "Nc1ccc([C@H]2C(=O)N[C@H]3CCC[C@H]32)cc1"
value_type = "TGI"
obs_value = "> 100 µM"

[[record]]
compound = "COC(=O)C1=CC2OC1(C)CCC2=O (configuration not stated)"
value_type = "TGI"
obs_value = "> 100 µM"

[[record]]
compound = "O=C1NC(=O)C2C1N(Cc1ccccc1)C(=O)N2Cc1ccccc1 (configuration not stated)"
value_type = "TGI"
obs_value = "> 100 µM"

[[record]]
compound = "O=C1OC(CN2CCOCC2)CN1/N=C/c1ccc([N+](=O)[O-])o1 (configuration not stated)"
value_type = "TGI"
obs_value = "> 100 µM"

[[record]]
compound = "CCOC(=O)C(=O)C(CCC(=O)c1ccc2ccccc2c1O)C(=O)OCC (configuration not stated)"
value_type = "TGI"
obs_value = "> 100 µM"

[[record]]
compound = "O=C(NO)c1ccc(O)c(O)c1"
value_type = "TGI"
obs_value = "> 100 µM"

[[record]]
compound = "COc1ccc(-c2nn(-c3cccc(NC(=O)c4ccc(N5CCOCC5)c(C(F)(F)F)c4)c3)cc2-c2ccncc2)cc1Cl"
value_type = "TGI"
obs_value = "> 50 µM"


src = PubChem BioAssay (NCI)
